Hello, the source for this data is PubChem BioAssay (NCI), in case you need it.

Give measured growth for each item. Keep answers brief.
- Test system: DU-145 prostate
- Experiment description: NCI-60 one-dose screen, 48 h (100 = growth as untreated, 0 = no growth, -100 = all killed)
- Test parameters: 10 µM unless noted
About 83,000 compounds went through this panel and 20% of them were active in at least one assay; those are over-represented in the sample as a whole.
Report the value in % with no unit label.

Task item: Recall the recorded growth for COc1ccc(CN2c3ccccc3Sc3ccccc32)cc1F with DU-145 prostate and state it.
Reply: 14.1

Task item: Recall the recorded growth for CCCCNC(=O)CC1=C(C)/C(=C/c2[nH]c(-c3ccc[nH]3)cc2OC)N=C1C with DU-145 prostate and state it.
Reply: 34.6

Task item: Recall the recorded growth for O=S(=O)(c1ccccc1)n1cc2c(c1)-c1nc(Nc3ncccn3)sc1CC2 with DU-145 prostate and state it.
Reply: 34.6

Task item: Recall the recorded growth for O=S(=O)(NCCCNc1nccc(-c2c(-c3ccc(F)c(O)c3)nc3occn23)n1)c1ccc(Cl)cc1 with DU-145 prostate and state it.
Reply: 73.5

Task item: Recall the recorded growth for CCOC(=O)c1c(NC(=O)c2ccc(Cl)cc2)sc2c(CN(C)C)c(O)ccc12 with DU-145 prostate and state it.
Reply: 82

Task item: Recall the recorded growth for O=C(OC(CO)C(=O)NC12CC3CC(CC(C3)C1)C2)c1ccc(Cl)cc1 (stereo not given) with DU-145 prostate and state it.
Reply: 103

Task item: Recall the recorded growth for N#Cc1c(-c2ccccc2)[nH]c2ncc(-c3ccccc3)n2c1=O with DU-145 prostate and state it.
Reply: 99.7

Task item: Recall the recorded growth for CN1CCN(C(=O)c2ccc(NC(=O)c3cc4c(nn3)NCCN4Cc3cc(Cl)ccc3Cl)cc2)CC1 with DU-145 prostate and state it.
Reply: 88.2

Task item: Recall the recorded growth for Cc1ccc(NC(=O)c2sc3nc(C)c(Br)c(C)c3c2N)cc1 with DU-145 prostate and state it.
Reply: 66.6

Task item: Recall the recorded growth for CN1C(=O)/C(=C\c2c(Cl)cccc2Cl)c2ccccc21 with DU-145 prostate and state it.
Reply: 99.6

Task item: Recall the recorded growth for O=C1NC2(Nc3ccccc31)C(=O)Nc1c(Cl)cc(Cl)cc12 (stereo not given) with DU-145 prostate and state it.
Reply: 117

Task item: Recall the recorded growth for COC(=O)CC[C@H](C)[C@H]1CC[C@H]2[C@@H]3CC[C@@H]4CC5(CC[C@]4(C)[C@H]3CC(=O)[C@]12C)Nc1ccccc1NC5=NC(C)(C)C (stereo not given in full) with DU-145 prostate and state it.
Reply: 90.2

Task item: Recall the recorded growth for Fc1cc2c(cc1Cl)N(c1ncnc3ccc(-c4ccc5n[nH]nc5c4)cc13)CC2 with DU-145 prostate and state it.
Reply: 67.1

Task item: Recall the recorded growth for Cn1c(I)c(C#CCO[Si](C)(C)C(C)(C)C)c(=O)[nH]c1=O with DU-145 prostate and state it.
Reply: 99.9

Task item: Recall the recorded growth for Cc1ccc2c(c1)=C/C(=C\c1cc(-c3ccccc3)oc1O)C(=O)N=2 with DU-145 prostate and state it.
Reply: 104

Task item: Recall the recorded growth for Cc1ccc(-c2nc(N3CCCNCC3)c3oc(-c4ccccc4)nc3n2)cc1 with DU-145 prostate and state it.
Reply: -15.2

Task item: Recall the recorded growth for Cn1cc(C(=O)c2nc(-c3c[nH]c4ccccc34)no2)c2cc(F)ccc21 with DU-145 prostate and state it.
Reply: 72.5

Task item: Recall the recorded growth for Fc1ccc(CNc2c3ccccc3nc3ccccc23)c(F)c1 with DU-145 prostate and state it.
Reply: 50.9

Task item: Recall the recorded growth for CSc1oc(C)nc1[P+](c1ccccc1)(c1ccccc1)c1ccccc1 with DU-145 prostate and state it.
Reply: 57.6

Task item: Recall the recorded growth for C/C(=N\O)c1ccc(Cl)cc1 with DU-145 prostate and state it.
Reply: 121

Task item: Recall the recorded growth for Cc1ccc(-c2nc(N3CCCNCC3)c3oc(-c4ccc(C)cc4)nc3n2)cc1 with DU-145 prostate and state it.
Reply: 42

Task item: Recall the recorded growth for O=C(N/N=C/c1c(Cl)cccc1Cl)c1cccnc1Nc1cccc(C(F)(F)F)c1 with DU-145 prostate and state it.
Reply: 49.3

Task item: Recall the recorded growth for Nc1ncnc2c1C(c1ccc(Br)cc1)c1sc3c(F)cccc3c1O2 (stereo not given) with DU-145 prostate and state it.
Reply: 102

Task item: Recall the recorded growth for O=C(CN1CCCCC1)Nc1nc(-c2cc3ccccc3oc2=O)cs1 with DU-145 prostate and state it.
Reply: 106

Task item: Recall the recorded growth for COc1ccc(\C=N/N=C(N)/C(N)=N\N=C/c2ccc(OC)cc2)cc1 with DU-145 prostate and state it.
Reply: 113

Task item: Recall the recorded growth for COC(=O)[C@]1(C)CCC[C@]2(C)[C@H]3C[C@H]4C(C(C)C)=C[C@]3(CC[C@H]21)[C@@H]1C(=O)CC[C@H](OCCC#N)[C@@H]14 with DU-145 prostate and state it.
Reply: 89.2

Task item: Recall the recorded growth for Nc1c(C(=O)Nc2ccncc2)sc2nc3c(cc12)C(O)CCC3 (stereo not given) with DU-145 prostate and state it.
Reply: 96.8

Task item: Recall the recorded growth for O=C(Nc1ccc(OS(=O)(=O)c2ccc(F)cc2)cc1)C1CCCCCC1 with DU-145 prostate and state it.
Reply: 90.6

Task item: Recall the recorded growth for CC(C)(Sc1cc(C(C)(C)C)c(OC(=O)CCCC(=O)O)c(C(C)(C)C)c1)Sc1cc(C(C)(C)C)c(OC(=O)CCCC(=O)O)c(C(C)(C)C)c1 with DU-145 prostate and state it.
Reply: 51.4

Task item: Recall the recorded growth for O=S(=O)(NCCCNc1nccc(-c2c(-c3ccc(F)c(O)c3)nc3sccn23)n1)c1ccccc1 with DU-145 prostate and state it.
Reply: 69

Task item: Recall the recorded growth for c1ccc(-c2oc(-c3ccccc3)c(CN3CCCCC3)c2CN2CCCCC2)cc1 with DU-145 prostate and state it.
Reply: 57.7

Task item: Recall the recorded growth for Nc1nc(N)c(-c2ccc(Cl)c(Cl)c2)c(CBr)n1 with DU-145 prostate and state it.
Reply: 83.2

Task item: Recall the recorded growth for O=C1c2c(c3c4ccccc4[nH]c3c3ccc4ccccc4c23)C(=O)N1CCN1CCOCC1 with DU-145 prostate and state it.
Reply: 39.7

Task item: Recall the recorded growth for O=C1NC(=C(Cl)Cl)/C(=N\S(=O)(=O)NCc2ccccc2)N1 with DU-145 prostate and state it.
Reply: 105

Task item: Recall the recorded growth for CCCCNC(=O)Oc1ccc(/C(=C(/C)Cc2ccc(OC)cc2)c2ccc(OCCN(CC)CC)cc2)cc1 with DU-145 prostate and state it.
Reply: 91.7

Task item: Recall the recorded growth for CSc1nc2ccccc2cc1/C=[N+](\[O-])c1ccccc1 with DU-145 prostate and state it.
Reply: 87.7

Task item: Recall the recorded growth for COc1cc(OC)c(NC(=O)c2cc3ccccc3cc2O)cc1Cl with DU-145 prostate and state it.
Reply: 46.4

Task item: Recall the recorded growth for CC(=O)/C(=C\c1c(-c2ccccc2)[nH]c2ccccc12)S(C)(=O)=O with DU-145 prostate and state it.
Reply: 13.2

Task item: Recall the recorded growth for CC(=O)Oc1ccc(N2C(=O)C(Cl)=C(Nc3cccc(C(F)(F)F)c3)C2=O)cc1 with DU-145 prostate and state it.
Reply: 101

Task item: Recall the recorded growth for C=CCN=c1sc2c(n1NC(=O)c1cc3ccc1CCc1ccc(cc1)CC3)C(=O)c1ccccc1C2=O with DU-145 prostate and state it.
Reply: -90.7
